Target: T1, Histidine-tagged human 4-1BB protein (h4-1BB-His) (human, UniProt Q07011 24-186)
T1 construct: not shown: histidine tag
Experiment: SPR (Biacore T200), antibody on Protein A chip, h4-1BB-His injected;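 also: dissociation phase followed for 300 s, Kd derived as koff divided by kon from the kinetic fit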
MEASURED ENDPOINT: koff (s⁻¹)
Kindly answer with a numeric value in s⁻¹, unit omitted.

# BINDER, UNIT ABBREV, koff
measured = [
    ("5F9-H3K3-IgG4 (antibody, V domains shown, humanized) VH: QVQLKESGPGLVKPSETLSITCTVSGFSLTTYDISWVRQPPGKGLEWLGVIWTGGGTNYNSSFMSRVTISKDNSKNQVSLKLSSVTAADTAIYYCERVDYWGQGTTLTVSS VL: DVVMTQSPLSLPVTLGQPASISCRSSQSLVHSNGNTYLHWYQQRPGQSPKLLIYKVSNRFSGVPDRFSGSGSGTAFTFKISRVEAEDVGVYYCSQNTHVPWTFGGGTKLEIK", "s⁻¹", 0.0022),
]

Consider now this further binder.
Input: Which koff reading was recorded for the binder 61-6A7-mHvKv-IgG2 (antibody, V domains shown) VH: EVQLQQSGAELVRPGALVKLSCKASGFNIKDYYMHWVKRRPEQGLEWIGWIDPENGNTIYDPKFQDKASITADTSSNTAYLQLSSLTSEDTAVYYCAEGLPWYFDYWGQGTTLTVSS VL: QIILTQSPALMSASPGEKVTMTCSASSSVSDMNWYQQKPRSSPTPWIYLTSNLSSGVPDRFSGSGSGTSYSLTISSMEAEDAATYYCQQWSGNPLTFGAGTRLELK ?
Output: 0.000513
